This collection of values is drawn from paper PMC7806715.

# test_system: N-UHRF1 vs. C-UHRF1 (Homo sapiens)
# Construct: biotinylated-AviTag-N-UHRF1 (containing UBL and TTD, aa 1–285); pMCSG51 (N-UHRF1), pMCSG7 (FLAG-C-UHRF1)
# Sequence (Q96T88 1-285): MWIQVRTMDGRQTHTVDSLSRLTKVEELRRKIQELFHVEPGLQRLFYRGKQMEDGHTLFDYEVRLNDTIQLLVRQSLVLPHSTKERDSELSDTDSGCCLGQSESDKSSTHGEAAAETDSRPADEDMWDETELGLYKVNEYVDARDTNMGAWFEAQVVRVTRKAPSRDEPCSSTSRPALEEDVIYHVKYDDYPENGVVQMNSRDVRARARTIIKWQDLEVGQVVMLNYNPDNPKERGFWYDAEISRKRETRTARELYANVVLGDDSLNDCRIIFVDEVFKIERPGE
# assay_remarks: AlphaScreen assay: N-UHRF1 interaction with C-UHRF1 (TTD:PBR)
# experimental_conditions: EC50 ± S.E.M., n=3; highest concentration tested 1 mM
Task for the reader: assign each of the following compounds its reported pEC50.
Conceptually, pEC50 converts a concentration in mol/L into minus its log10.

Field request: pEC50 | item: Cc1c(Br)cnc2c1CCCN2
4.12

Field request: pEC50 | item: Cc1cc(C)nc(N)c1
4.67

Field request: pEC50 | item: c1cnc2c(c1)CCCN2
3.79

Field request: pEC50 | item: Cc1ccnc(N)c1
4.28

====

# test_system: UHRF1-TTD (Homo sapiens)
# Construct: Using the isolated His6-TTD (aa 123–283) we performed a thermal shift assay; His6 (N, cleaved yes); made in house; host or cells: Rosetta (DE3) E. coli, pMCSG7
# assay_remarks: Thermal shift assay (TSA) of TTD
# Type: binding
# experimental_conditions: compound at 500 μM; untagged TTD, 150 mM NaCl; mean ± S.D., n=3
Task for the reader: assign each of the following compounds its reported ΔTm at 500 µM.
// units = °C; emit number, no label

Field request: ΔTm at 500 µM | item: c1cnc2c(c1)CCCC2 [Compound 6, 5,6,7,8-tetra-hydro-quinoline]
0.21

Field request: ΔTm at 500 µM | item: Cc1cc(C)c2c(n1)NCCC2
1.52

Field request: ΔTm at 500 µM | item: c1cnc2c(c1)NCCN2 [Compound 7, 1,2,3,4-tetrahydropyrido[2,3-b]pyrazine]
0.19

Field request: ΔTm at 500 µM | item: Cc1ccnc(C)c1
2.04

====

# test_system: His6-TTD (UHRF1 tandem Tudor domain) vs. H3K9me3 peptide (Homo sapiens, UniProt Q96T88)
# Construct: Using the isolated His6-TTD (aa 123–283) we performed a thermal shift assay; made in house; host or cells: Rosetta (DE3) E. coli, pMCSG7
# assay_remarks: TR-FRET assay: His6-TTD interaction with H3K9me3 peptide
# Assay type: biochemical
# experimental_conditions: EC50 ± S.E.M., n=3; highest concentration tested 1 mM
# label = condition met if EC50 < 60 µM else condition not met

Consider Cc1cc(C)nc(C)c1 [Compound 15] . Does its EC50 lie strictly below 60 µM?
condition met

Consider c1cnc2c(c1)NCCN2 [Compound 7, 1,2,3,4-tetrahydropyrido[2,3-b]pyrazine] . Does its EC50 lie strictly below 60 µM?
condition not met

Consider c1cnc2c(c1)CCCC2 [Compound 6, 5,6,7,8-tetra-hydro-quinoline] . Does its EC50 lie strictly below 60 µM?
condition not met

Consider Cc1cc(C)nc(N)c1 [Compound 12] . Does its EC50 lie strictly below 60 µM?
condition met

Consider c1cnc2c(c1)CCCN2 [Compound 2] . Does its EC50 lie strictly below 60 µM?
condition not met

Consider Cc1ccnc(N)c1 [Compound 8] . Does its EC50 lie strictly below 60 µM?
condition not met

====

# test_system: UHRF1-TTD (Homo sapiens, UniProt Q96T88)
# Construct: Using the isolated His6-TTD (aa 123–283) we performed a thermal shift assay; His6 (N, cleaved yes); made in house; host or cells: Rosetta (DE3) E. coli, pMCSG7
# assay_remarks: Thermal shift assay (TSA) of TTD
# Assay type: binding
# experimental_conditions: compound at 500 μM; untagged TTD, 150 mM NaCl; mean ± S.D., n=3
Task for the reader: assign each of the following compounds its reported TSA (ΔTm) at 500 μM.
Quick note: number first, unit second.

Field request: TSA (ΔTm) at 500 μM | item: Cc1c(Br)cnc2c1CCCN2
0.1 ± 0.06 °C

Field request: TSA (ΔTm) at 500 μM | item: Cc1cc(C)nc(C)c1
1.11 ± 0.06 °C

Field request: TSA (ΔTm) at 500 μM | item: c1cnc2c(c1)CCCN2
0.75 ± 0.02 °C

Field request: TSA (ΔTm) at 500 μM | item: Cc1ccnc(N)c1
0.66 ± 0.09 °C

Field request: TSA (ΔTm) at 500 μM | item: Cc1cc(C)nc(N)c1
1.59 ± 0.06 °C
